I'd appreciate it if you could supply EC50 values for the items below.
# tgt: T1, recombinant human IL12Rβ1/Fc fusion protein (human, UniProt P42701 24-545)
# T1 construct: Bought from R&D Systems; Partly used biotinylated; also called rh IL12Rβ1
# assay: BioVeris competition; Fab titrated with IL12Rβ1/Fc, competitor rhIL-23 on beads
The reply should be a number in nM, with the unit left off.

Which measured EC50 value corresponds to MOR05281 Fab (Fab, V domains shown) VH: QVQLKESGPALVKPTQTLTLTCTFSGFSLSTRGVGVSWIRQPPGKALEWLALIYWDEDKYYSTSLKTRLTISKDTSKNQVVLTMTNMDPVDTATYYCARYQSGYYYNNDGWGVDIWGQGTLVTVSS VL: DIQMTQSPSSLSASVGDRVTITCRASQSISSWLNWYQQKPGKAPKLLIYAASSLQSGVPSRFSGSGSGTDFTLTISSLQPEDFATYYCQQYYAFPHTFGQGTKVEIKR ?
0.07

Moving on to MOR05271 Fab (Fab, V domains shown) VH: QVQLKESGPALVKPTQTLTLTCTFSGFSLSTSTMGVSWIRQPPGKALEWLAWIYWDDDKDYSTSLKSRLTISKDTSKNQVVLTMTNMDPVDTATYYCARANPDLGYFDYWGQGTLVTVSS VL: DIALTQPASVSGSPGQSITISCTGTSSDLGESNYVSWYQQHPGKAPKVMIYDVNKRPSGVSNRFSGSKSGNTASLTISGLQAEDEADYYCGSYDEEDNVFGGGTKLTVLG
0.025

Another binder: MOR05278 Fab (Fab, V domains shown) VH: QVQLVESGGGLVQPGGSLRLSCAASGFTFSSYGMSWVRQAPGKGLEWVSYIEPKLFWYATFYAASVKGRFTISRDNSKNTLYLQMNSLRAEDTAVYYCARNDFMEPAYFALWGQGTLVTVSS VL: DIELTQPPSVSVAPGQTARISCSGDNLGSYYAYWYQQKPGQAPVGVIYDDSERPSGIPERFSGSNSGNTATLTISGTQAEDEADYYCSSYTYSKNNVFGGGTKLTVLG
0.24

Moving on to the next binder: MOR05286 Fab (Fab, V domains shown, also called MOR5286) VH: QVQLKESGPALVKPTQTLTLTCTFSGFSLSTSGMGVSWIRQPPGKALEWLALIDWTDDKYYSTSLKTRLTISKDTSKNQVVLTMTNMDPVDTATYYCARTVGKGLYRVDNWGQGTLVTVSS VL: DIELTQPPSVSVAPGQTARISCSGDNLGSKFAYWYQQKPGQAPVLVIYDDSKRPSGIPERFSGSNSGNTATLTISGTQAEDEADYYCQSWDSSSGNDVFGGGTKLTVLG
0.17
